Assay system: PTP-1B (Homo sapiens, UniProt P18031)
Construct: PTP-1B (purified, 1 mg/mL) as a 1:250 dilution
Sequence (P18031 1-321 limits assumed): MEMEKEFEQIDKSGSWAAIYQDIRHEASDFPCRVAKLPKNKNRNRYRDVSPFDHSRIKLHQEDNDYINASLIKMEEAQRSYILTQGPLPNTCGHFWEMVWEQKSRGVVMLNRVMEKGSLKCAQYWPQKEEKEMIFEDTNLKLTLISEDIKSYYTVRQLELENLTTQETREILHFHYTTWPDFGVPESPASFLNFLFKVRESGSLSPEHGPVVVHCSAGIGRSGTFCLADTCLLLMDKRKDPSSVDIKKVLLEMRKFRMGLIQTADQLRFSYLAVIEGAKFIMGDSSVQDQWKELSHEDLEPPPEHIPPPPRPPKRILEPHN
Protocol text: pNPP tyrosine phosphatase inhibition assay, PTP-1B
Type: biochemical
Condition set: pNPP assay, PTP-1B; read-out: Activity Class (IC50 ranges)
pIC50: −log10 of the molar value.
Metric: pIC50

{"Compound": "CCNc1ccc(S(=O)(=O)C(F)(F)F)cc1NC(=O)c1ccc(C)c(S(=O)(=O)N2CCCCC2)c1 [Compound 106]", "pIC50": "< 4.60"}
{"Compound": "COc1ccccc1S(=O)(=O)N(Cc1ccc(C#N)cc1)Cc1ccc(NC(=O)C(=O)O)cc1 [Compound 118]", "pIC50": "< 4.60"}
{"Compound": "COc1ccccc1S(=O)(=O)N(Cc1ccc(OCc2nn[nH]n2)cc1)Cc1ccc(S(C)(=O)=O)cc1 [Compound 128]", "pIC50": "< 4.60"}
{"Compound": "O=P(O)(O)C(F)(F)c1ccc(CN(Cc2ccc(Cl)c(Cl)c2)S(=O)(=O)c2ccccn2)cc1Br [Compound 100]", "pIC50": "6.30 to 6.60"}
{"Compound": "O=P(O)(O)C(F)(F)c1ccc(CN(Cc2ccc(C(F)(F)P(=O)(O)O)cc2)S(=O)(=O)c2ccccc2)cc1 [Compound 60]", "pIC50": "6.30 to 6.60"}
{"Compound": "COc1ccc(S(=O)(=O)N(Cc2ccc(C(=O)C(=O)O)cc2)Cc2ccc(S(C)(=O)=O)cc2)c(OC)c1 [Compound 111]", "pIC50": "< 4.60"}

Provide pIC50 values for the following items, in order.
1. COc1ccccc1S(=O)(=O)N(Cc1ccc(-c2cccc(-c3nn[nH]n3)c2)cc1)Cc1ccc(C(F)(F)P(=O)(O)O)c(Cl)c1 [Compound 47]
2. O=P(O)(O)C(F)(F)c1ccc(CN(Cc2ccc(C(F)(F)P(=O)(O)O)cc2)c2ccccc2)cc1 [Compound 64]
3. COc1ccccc1S(=O)(=O)N(Cc1ccc(Cl)c(Cl)c1)Cc1ccc(NC(=O)C(=O)O)c(C(=O)O)c1 [Compound 56]
4. COc1ccccc1S(=O)(=O)N(Cc1ccc(-c2cccc(C#N)c2)cc1)Cc1ccc(C(F)(F)P(=O)(OCOC(=O)C(C)(C)C)OCOC(=O)C(C)(C)C)c(Cl)c1 [Compound 226]
5. CC(=O)N(Cc1ccc(C(F)(F)P(=O)(O)O)cc1)Cc1ccc(C(F)(F)P(=O)(O)O)cc1 [Compound 59]
6. COC(=O)c1cccc(-c2ccc(CCN(Cc3ccc(C(F)(F)P(=O)(O)O)c(Cl)c3)S(=O)(=O)c3ccccc3OC)cc2)c1 [Compound 182]
7. COc1ccccc1S(=O)(=O)N(Cc1ccc(C#N)cc1)Cc1ccc(NC(=O)C(=O)O)cc1 [Compound 129]
8. COc1ccccc1S(=O)(=O)N(Cc1ccc(C#N)cc1)Cc1ccc(Nc2c(O)c(=O)c2=O)cc1 [Compound 135]

-- reply
1. > 7.00
2. 4.60 to 5.60
3. < 4.60
4. < 4.60
5. < 4.60
6. 6.30 to 6.60
7. < 4.60
8. < 4.60
